SYSTEM: 5'-nucleotidase (Rattus norvegicus) (UniProt P21588)
Sequence (whole entry): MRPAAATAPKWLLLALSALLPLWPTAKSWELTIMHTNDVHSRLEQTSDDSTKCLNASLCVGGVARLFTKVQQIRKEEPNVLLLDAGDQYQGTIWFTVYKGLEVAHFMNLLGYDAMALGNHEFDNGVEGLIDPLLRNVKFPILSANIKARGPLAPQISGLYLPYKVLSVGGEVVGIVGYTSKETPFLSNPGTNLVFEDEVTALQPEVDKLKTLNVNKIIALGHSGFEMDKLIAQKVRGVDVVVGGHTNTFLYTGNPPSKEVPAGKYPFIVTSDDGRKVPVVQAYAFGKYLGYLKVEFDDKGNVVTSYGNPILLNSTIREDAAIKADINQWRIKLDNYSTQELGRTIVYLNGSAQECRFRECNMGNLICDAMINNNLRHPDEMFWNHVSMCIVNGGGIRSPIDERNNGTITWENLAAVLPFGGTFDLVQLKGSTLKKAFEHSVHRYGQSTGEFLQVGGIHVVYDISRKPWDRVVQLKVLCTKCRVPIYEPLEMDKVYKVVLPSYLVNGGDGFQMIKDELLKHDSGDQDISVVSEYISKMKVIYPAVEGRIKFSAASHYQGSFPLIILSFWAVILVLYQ
PROCEDURE TEXT: Activity at rat recombinant ecto-5'-nucleotidase expressed in baculovirus-infected insect Sf9 cells co-transfected with soluble glutathione-S-transferase assessed as compound dephosphorylation by capillary electrophoresis relative to AMP
Set-up: concentration or dose not given beside the values
MEASUREMENT KIND: Activity (%)

Nc1nc(SCCc2ccccc2)nc2c1ncn2[C@@H]1O[C@H](COP(=O)(O)O)[C@@H](O)[C@H]1O
0

[a] Nc1nc(SCCC2OCCO2)nc2c1ncn2[C@@H]1O[C@H](COP(=O)(O)O)[C@@H](O)[C@H]1O
[b] Nc1nc(SCc2ccccc2)nc2c1ncn2[C@@H]1O[C@H](COP(=O)(O)O)[C@@H](O)[C@H]1O
[c] Nc1nc(SC2CCCC2)nc2c1ncn2[C@@H]1O[C@H](COP(=O)(O)O)[C@@H](O)[C@H]1O
Please list these compounds in decreasing order of Activity. Write the labels, ordered according to the request.
a, c, b

Origin of the recorded values: ChEMBL document CHEMBL1155272
